experimental-details: A CellTox Green Cytotoxicity Assay to monitor cytotoxicity in HEK293 cells - 8 hour (AID 1224884); further: nearly all actives have a fitted effect of over 35% in size
details: CellTox Green fluorescence; series mostly up to 76.8 µM
Inconclusive results are not listed. Calls of active or inactive are those of the source. The call rests on the fitted dose curve; in most records, active means well fitted activation curve with a large enough effect in the repeat runs; inconclusive means weak or mixed curves; inactive means flat fitted curve, though single readings scatter.
value-kind: outcome

INSERT INTO assay_data (molecule, value_kind, measurement) VALUES
  ('Cc1c(C)c2c(c(C)c1OC(=O)CCC(=O)OCCO)CC[C@@](C)(CCC[C@H](C)CCC[C@H](C)CCCC(C)C)O2', 'outcome', 'inactive'),
  ('Cc1ccccc1N=C(N)Nc1ccccc1C', 'outcome', 'inactive'),
  ('Nc1cccc2c1CN(C1CCC(=O)NC1=O)C2=O (stereo unspecified)', 'outcome', 'inactive'),
  ('CN1CC(=O)N2[C@H](c3ccc4c(c3)OCO4)c3[nH]c4ccccc4c3C[C@@H]2C1=O', 'outcome', 'inactive'),
  ('Cc1cc(O)c(C)c(C)c1O', 'outcome', 'inactive');

Problem: Sample O=c1[nH]ncc2ccccc12 — what was its outcome?
Result: inactive

Problem: Note, next up: CC(=O)c1ccc([N+](=O)[O-])cc1
Result: inactive

Problem: Note, next up: CN1CCCC(n2nc(Cc3ccc(Cl)cc3)c3ccccc3c2=O)CC1 (stereo unspecified)
Result: inactive

Problem: Note, next up: O=C1CCCCCCCCCCOCCCCO1
Result: inactive

Problem: Note, next up: O=C(O)c1cccc(-c2noc(-c3ccccc3F)n2)c1
Result: inactive

Problem: Note, next up: CCOC(=O)OC(C)OC(=O)[C@@H]1N2C(=O)[C@@H](NC(=O)[C@H](N)c3ccccc3)[C@H]2SC1(C)C (stereo partly specified)
Result: inactive
